System: MDA-MB-231
Experiment: Cytotoxicity against human MDA-MB-231 cells assessed as cell viability by MTT assay
Type: functional, cell-based
pIC50: −log10 of the molar value.
measure: pIC50

entry_smiles=O=C1C[C@H](c2ccccc2)Oc2cc(O)c([C@H](/C=C/C[C@@H](O)CCc3ccccc3)c3ccccc3)c(O)c21 target_or_system=MDA-MB-231 result_value=5.46
entry_smiles=O=C1C[C@H](c2ccccc2)Oc2cc(O)c([C@@H](/C=C/C[C@@H](O)CCc3ccccc3)c3ccccc3)c(O)c21 target_or_system=MDA-MB-231 result_value=5.39
entry_smiles=O=C1C[C@@H](c2ccccc2)Oc2cc(O)c([C@H](/C=C/C[C@@H](O)CCc3ccccc3)c3ccccc3)c(O)c21 target_or_system=MDA-MB-231 result_value=5.36
entry_smiles=O=C1C[C@@H](c2ccccc2)Oc2cc(O)c([C@@H](/C=C/C[C@@H](O)CCc3ccccc3)c3ccccc3)c(O)c21 target_or_system=MDA-MB-231 result_value=5.83

* * *

Test: Cytotoxicity against human HFF cells assessed as cell viability by MTT assay
Assay type: toxicity, cell-based
pIC50: −log10 of the molar value.
measure: pIC50

entry_smiles=O=C1C[C@@H](c2ccccc2)Oc2cc(O)c([C@H](/C=C/C[C@@H](O)CCc3ccccc3)c3ccccc3)c(O)c21 result_value=5.23
